# protocol.notes: Solubility in water or aqueous sodium phosphate buffer
# Assay type: physicochemical
# test.conditions: aqueous buffer; chloride salt; 0.4 M sodium phosphate buffer (pH 7.8); read-out: solubility

entry.smiles: CN(C)CCc1ccc(P(CS)c2ccc(CCN(C)C)cc2)cc1
solubility: > 1000 mM

* * *

# protocol.notes: pKa determination by 31P NMR spectroscopy
# Type: physicochemical
# test.conditions: control experiment, sodium phosphate buffer containing 20% v/v D2O
endpoint.name: pKa

molecule: O=C(O)CCP(CCC(=O)O)CCC(=O)O [TCEP, tris(2-carboxyethyl)phosphine]
endpoint.name: pKa
numeric.result: 7.7

Numbers sourced from patent US8410247B2.
